In this section, each of the sequences is paired with its reported Median SFC/10^6 PBMCs (IFN-g).
# Tested on: PBMC from healthy, seropositive donors
# Type: cell-based, human
Respond numerically, and do not add a unit to the figure.

Some solved cases for reference:
[in] Fill in the blank: the reported Median SFC/10^6 PBMCs (IFN-g) of DPLPPAMLYHELVGLLGRLS [BPSS0530_P27] is ____.
[out] 239

[in] Fill in the blank: the reported Median SFC/10^6 PBMCs (IFN-g) of ITNYFTGLQTVANNAADPSA [BPSL0280_P12] is ____.
[out] 557

[in] Fill in the blank: the reported Median SFC/10^6 PBMCs (IFN-g) of TQLLARLQWLDAAAKLERLL [BPSS1599_P35] is ____.
[out] 145

[in] Fill in the blank: the reported Median SFC/10^6 PBMCs (IFN-g) of GAAQMTAAIAGGALQATTSL [BPSS1531_P21] is ____.
[out] 225

[in] Fill in the blank: the reported Median SFC/10^6 PBMCs (IFN-g) of LEGAFYNGRRQPAPNWLGAF [BPSS1599_P9] is ____.
[out] 126

Next:
[in] Fill in the blank: the reported Median SFC/10^6 PBMCs (IFN-g) of KLNHYSFGDVKGELIDQLGV [BPSL2096_P11] is ____.
[out] 320

[in] Fill in the blank: the reported Median SFC/10^6 PBMCs (IFN-g) of SNHGWGFTLLDLDQDGLGLG [BPSS0530_P5] is ____.
[out] 224

[in] Fill in the blank: the reported Median SFC/10^6 PBMCs (IFN-g) of ASTSAQRVLSTGGGVADLIE [BPSS0530_P23] is ____.
[out] 267

[in] Fill in the blank: the reported Median SFC/10^6 PBMCs (IFN-g) of EAVELAKKLKFDLMVLRIDR [BPSS1599_P4] is ____.
[out] 137

[in] Fill in the blank: the reported Median SFC/10^6 PBMCs (IFN-g) of QGMGASNPIADNATEAGRAQ [BPSL0999_P19] is ____.
[out] 375

[in] Fill in the blank: the reported Median SFC/10^6 PBMCs (IFN-g) of AATAVMAASASAQSVPASRQ [BPSL2522_P2] is ____.
[out] 273

[in] Fill in the blank: the reported Median SFC/10^6 PBMCs (IFN-g) of KVYTEGKGKRNPVTGNTCKQ [BPSL2522_P18] is ____.
[out] 288

[in] Fill in the blank: the reported Median SFC/10^6 PBMCs (IFN-g) of AIFSEAKDRFCMDPATRAGN [BPSS1525_P13] is ____.
[out] 200

[in] Fill in the blank: the reported Median SFC/10^6 PBMCs (IFN-g) of GVAAAGYANTRDGFAPGHLS [BPSS1599_P6] is ____.
[out] 129

[in] Fill in the blank: the reported Median SFC/10^6 PBMCs (IFN-g) of NASRTVSLDPRFIPPLLDTR [BPSS0530_P19] is ____.
[out] 334

[in] Fill in the blank: the reported Median SFC/10^6 PBMCs (IFN-g) of LERLHTDYAWGGWNVVIGEP [BPSS1599_P14] is ____.
[out] 157

[in] Fill in the blank: the reported Median SFC/10^6 PBMCs (IFN-g) of SVLAQEAPARQHRIDMHGMR [BPSS1531_P31] is ____.
[out] 182

###

# Tested on: PBMC from healthy, seropositive donors
# Format: cell-based, human
Measure: % Responders (%)
State the answer as a number, implicitly in %.

[in] Fill in the blank: the reported % Responders of RLGLRHARGVFQDGTAFSLP [BPSS0530_P7] is ____.
[out] 90.7

[in] Fill in the blank: the reported % Responders of AATAVMAASASAQSVPASRQ [BPSL2522_P2] is ____.
[out] 88.6

[in] Fill in the blank: the reported % Responders of SAQSVPASRQAVNDNWVNGT [BPSL2522_P3] is ____.
[out] 88.6

[in] Fill in the blank: the reported % Responders of RVRAELAARQARSGPVAPPW [BPSS1599_P24] is ____.
[out] 87.5

[in] Fill in the blank: the reported % Responders of FDLMVLRIDRGVAAAGYANT [BPSS1599_P5] is ____.
[out] 89.6

[in] Fill in the blank: the reported % Responders of ASPTWRAYRLNANLGGIAPP [BPSS1599_P39] is ____.
[out] 87.5

[in] Fill in the blank: the reported % Responders of DTDGERATLDVPLTAPTAND [BPSS1599_P32] is ____.
[out] 87.5

[in] Fill in the blank: the reported % Responders of GGERMSDEHASVLAQEAPAR [BPSS1531_P30] is ____.
[out] 91.4

Next:
[in] Fill in the blank: the reported % Responders of LRVERIAYQNNQWTLEGVLY [BPSS1599_P42] is ____.
[out] 91.7

[in] Fill in the blank: the reported % Responders of NLAQQAAALPASPTWRAYRL [BPSS1599_P38] is ____.
[out] 89.6

###

# Tested on: PBMC from healthy, seropositive donors
# Type: cell-based, human
Measure: % Responders (%)
State the answer as a number, implicitly in %.

[in] Fill in the blank: the reported % Responders of PVAPVAPAITSQKITYQADT [BPSL2522_P9] is ____.
[out] 88.6

[in] Fill in the blank: the reported % Responders of DRELGYDHDDLQTSFEPLAM [BPSS0530_P30] is ____.
[out] 88.4

[in] Fill in the blank: the reported % Responders of NNHEENGQSAFETVTEASFP [BPSL2096_P3] is ____.
[out] 91.2

[in] Fill in the blank: the reported % Responders of TKLGAVEQIQKLVDLQLPGA [BPSS0530_P38] is ____.
[out] 90.7

Next up:
[in] Fill in the blank: the reported % Responders of VDKQWNLKKLIFAFSAAMPA [BPSS0530_P35] is ____.
[out] 90.7
